# Protocol Text: Acute toxicity test in mice
# Test Parameters: both, mouse, in vivo, po
Assay Readout: LD50 at 14 days
Answer as a quantity: numeral, then unit.

Here's what some known entries look like.
| Molecule | Assay Readout | Assay Value |
| --- | --- | --- |
| CN(Cc1cnc2nc(N)nc(N)c2n1)c1ccc(C(=O)N[C@@H](CCC(=O)O)C(=O)O)cc1 [methotrexate, reference compound] | LD50 at 14 days | 1370 mg/kg |
| CCOC(=O)[C@@H]1CCC2=CC(=O)CC(=O)C2C1 (stereo partly shown) [Compound 23] | LD50 at 14 days | 2310 mg/kg |
| O=C1C=C2CC[C@@H](O)CC2C(=O)C1 (stereo partly shown) [Compound 32] | LD50 at 14 days | 2660 mg/kg |

Next molecule, please.
Form field: reported LD50 at 14 days of O=C1C=C2CCC(F)(F)CC2C(=O)C1 (stereo not shown) [Compound 36]
2710 mg/kg
